Tested on: SGK1 (human), O00141 [S422D]
Sequence (O00141 whole entry S422D, looked up): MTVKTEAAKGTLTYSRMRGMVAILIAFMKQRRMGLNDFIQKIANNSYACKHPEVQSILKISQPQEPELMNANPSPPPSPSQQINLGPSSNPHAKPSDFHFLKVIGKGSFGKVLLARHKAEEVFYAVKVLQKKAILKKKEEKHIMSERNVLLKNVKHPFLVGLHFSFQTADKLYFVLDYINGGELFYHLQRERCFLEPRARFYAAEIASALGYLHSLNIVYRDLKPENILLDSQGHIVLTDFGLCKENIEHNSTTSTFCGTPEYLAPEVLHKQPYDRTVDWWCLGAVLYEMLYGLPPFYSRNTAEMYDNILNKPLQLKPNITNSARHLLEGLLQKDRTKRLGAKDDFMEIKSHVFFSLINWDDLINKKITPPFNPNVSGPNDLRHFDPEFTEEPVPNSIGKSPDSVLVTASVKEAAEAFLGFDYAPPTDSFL
assaySummary: radiometric filter-binding kinase assay, Kinase HotSpot
conditionDescription: compound 0.5 µM; ATP 10 µM
A collection of molecules and their measured residual activity
recordedMetric: residual activity (%)

• NC(=O)c1ccc(N(C(N)=O)c2c(F)cccc2F)nc1-c1ccc(F)cc1F = 121
• COc1ccc(CNC(=O)Nc2ncc([N+](=O)[O-])s2)cc1 = 105
• CO[C@@H]1[C@H](N(C)C(=O)c2ccccc2)C[C@H]2O[C@]1(C)n1c3ccccc3c3c4c(c5c6ccccc6n2c5c31)C(=O)NC4 = 81.9
• Cc1ccc(NC(=O)c2ccc(CN3CCN(C)CC3)cc2)cc1Nc1nc(-c2cccnc2)cs1 = 111
• NC(=O)c1cccc(-c2cc(Nc3ccc(OC(F)(F)F)cc3)ncn2)c1 = 101
• Cn1nc2c3c(cccc31)C(=O)c1ccccc1-2 = 94.8
• CCCC(=O)Oc1ccc2[nH]c(C(=O)c3cc4ccccc4[nH]3)cc2c1 = 97
• COc1cc2c(cc1OC)-c1[nH]nc(Nc3cccc(F)c3)c1C2 = 99.8
• CC(=O)c1ccc(N2CCOCC2)cc1O = 97.2
• CCN(CC)C(=O)c1ccc(Nc2nc(OCC3CCCCC3)c3nc[nH]c3n2)cc1 = 84.7
• O=c1cc(N2CCOCC2)oc2c1ccc1ccccc12 = 98
• COc1ccc(-c2cnc3c(-c4ccsc4)cnn3c2)cc1 = 81.8
• O=S(=O)(NCCNC/C=C/c1ccc(Br)cc1)c1cccc2cnccc12 = 93.2
• O=c1c2ccccc2[nH]c(=S)n1CCN1CCC(=C(c2ccc(F)cc2)c2ccc(F)cc2)CC1 = 96
• O=C(O)/C=C/c1cc(Br)c(Br)c(Br)c1Br = 76.7
• COc1cc(Nc2c(C#N)cnc3cc(OCCCN4CCN(C)CC4)c(OC)cc23)c(Cl)cc1Cl = 126
• Nc1nnc2[nH]c3ccccc3nc1-2 = 114
• Nc1ncnc2c1cnn2-c1ccccc1 = 90.9
• O=C(CCCc1ccc(-c2ccccc2F)cc1)Nc1ccc(O)cc1 = 103
• COc1ccc(S(=O)(=O)N(CCO)c2ccccc2CN(C)C/C=C/c2ccc(Cl)cc2)cc1 = 103
• CC(C)(C)c1nc2c3ccc(F)cc3c3c(=O)[nH]ccc3c2[nH]1 = 50.9
• Cc1ccc(S(=O)(=O)/C=C/C#N)cc1 = 98.7
